# Test system: rat aorta
# run.description: inhibition of calcium-induced contraction (change in tension) of spirally cut strips of rat aorta in K+ 45 mM saline
# Format: cell-based
# condition.notes: 0.75 h, 45 millimolar potassium, 2 millimolar calcium, 45 minutes, read-out: IC50 (molar concentration required to reduce the response by 50%)
# Method: The ability of the compounds to inhibit the movement of calcium into the cell is shown by their effectiveness in reducing the response of isolated heart tissue to an increase in calcium ion concentration in vitro. The test is performed by mounting spirally cut strips of rat aorta with one end fixed and the other attached to a force transducer. The tissue is immersed in a bath of physiological saline solution containing potassium ions at a concentration of 45 millimolar and no calcium. […]
pIC50: −log10 of the molar value.
reported.metric: pIC50

compound	reported.metric	measured.value
CCOC(=O)C1=C(COCCNc2nnc(N)[nH]2)NC(C)=C(C(=O)OC)C1c1cccc(Cl)c1Cl (stereo not shown) [Example 3B]	pIC50	8.22
CCOC(=O)C1=C(COCCNc2ccnc(Cl)n2)NC(C)=C(C(=O)OC)C1c1ccccc1Cl (stereo not shown) [Example 18]	pIC50	7.50
CCOC(=O)C1=C(COCCNc2cc(N3CCOCC3)ncn2)NC(C)=C(C(=O)OC)C1c1cccc(C(F)(F)F)c1Cl (stereo not shown) [Example 88]	pIC50	9.90
CCOC(=O)C1=C(COCCNC2=NCC(=O)N2)NC(C)=C(C(=O)OC)C1c1cccc(Cl)c1Cl (stereo not shown) [Example 37]	pIC50	8.00
CCOC(=O)C1=C(COCCNc2nc(N)n(C)n2)NC(C)=C(C(=O)OC)C1c1cccc(Cl)c1Cl (stereo not shown) [Example 5]	pIC50	8.52
CCOC(=O)C1=C(COCCNc2nc(N)nc(N)n2)NC(C)=C(C(=O)OC)C1c1ccccc1Cl (stereo not shown) [Example 11]	pIC50	6.37
CCOC(=O)C1=C(COCCNc2nccnc2Cl)NC(C)=C(C(=O)OC)C1c1ccccc1Cl (stereo not shown) [Example 32]	pIC50	7.80

----------
log10(IC50) values, listed per item
# System: rat aorta
# run.description: inhibition of calcium-induced contraction (change in tension) of spirally cut strips of rat aorta in K+ 45 mM saline
# Type: cell-based
# condition.notes: 0.75 h, 45 millimolar potassium, 2 millimolar calcium, 45 minutes, read-out: IC50 (molar concentration required to reduce the response by 50%)
reported.metric: log10(IC50) (log10 of the value in nM)

molecule	log10(IC50)
CCOC(=O)C1=C(COCCNc2cc(=O)n(C)cn2)NC(C)=C(C(=O)OC)C1c1ccccc1Cl (stereo not drawn) [Example 30]	0.37
CCOC(=O)C1=C(COCCNc2cc(=O)[nH]cn2)NC(C)=C(C(=O)OC)C1c1cccc(Cl)c1Cl (stereo not drawn) [Example 41]	-0.11
CCOC(=O)C1=C(COCCNC2=NCC(=O)N2)NC(C)=C(C(=O)OC)C1c1ccccc1Cl (stereo not drawn) [Example 9]	1.10
CCOC(=O)C1=C(COCCNc2noc(N)n2)NC(C)=C(C(=O)OC)C1c1ccccc1Cl (stereo not drawn) [Example 6]	1.06
CCOC(=O)C1=C(COCCNc2ccc(S(=O)(=O)N3CCN(C=O)CC3)cn2)NC(C)=C(C(=O)OC)C1c1ccccc1Cl (stereo not drawn) [Example 36]	0.50
CCOC(=O)C1=C(COCCNc2cc(Cl)ncn2)NC(C)=C(C(=O)OC)C1c1ccccc1Cl (stereo not drawn) [Example 31]	1.25
CCOC(=O)C1=C(COCCNc2nc(-c3ccccc3)cc(=O)[nH]2)NC(C)=C(C(=O)OC)C1c1cccc(Cl)c1Cl (stereo not drawn) [Example 43]	0.92
CCOC(=O)C1=C(COCCNc2nc(C(C)=O)c[nH]2)NC(C)=C(C(=O)OC)C1c1cccc(Cl)c1Cl (stereo not drawn) [Example 91B]	0.40
CCOC(=O)C1=C(COCCNc2nc(N)n[nH]2)NC(C)=C(C(=O)OC)C1c1ccccc1Cl (stereo not drawn) [Example 1B]	1.30
CCOC(=O)C1=C(COCCNc2cc(N3CCCCC3)ncn2)NC(C)=C(C(=O)OC)C1c1cccc(Cl)c1Cl (stereo not drawn) [Example 82]	0.61
CCOC(=O)C1=C(COCCNc2noc(=O)[nH]2)NC(C)=C(C(=O)OC)C1c1cccc(Cl)c1Cl (stereo not drawn) [Example 78]	0.36
CCOC(=O)C1=C(COCCNc2cc(N3CCN(C)CC3)ncn2)NC(C)=C(C(=O)OC)C1c1cccc(Cl)c1Cl (stereo not drawn) [Example 81]	0.50
CCOC(=O)C1=C(COCCNc2noc(N)n2)NC(C)=C(C(=O)OC)C1c1cccc(C(F)(F)F)c1Cl (stereo not drawn) [Example 7]	0.54
CCOC(=O)C1=C(COCCNc2cc(=O)[nH]cn2)NC(C)=C(C(=O)OC)C1c1cccc(C(F)(F)F)c1Cl (stereo not drawn) [Example 60]	1.65
CCOC(=O)C1=C(COCCNc2n[s+]([O-])nc2OC)NC(C)=C(C(=O)OC)C1c1cccc(C(F)(F)F)c1Cl (stereo not drawn) [Example 66]	0.35

----------
# System: rat aorta
# run.description: inhibition of calcium-induced contraction (change in tension) of spirally cut strips of rat aorta in K+ 45 mM saline
# Assay type: cell-based
# condition.notes: 0.75 h, 45 millimolar potassium, 2 millimolar calcium, 45 minutes, read-out: IC50 (molar concentration required to reduce the response by 50%)

compound	IC50 [nM]
CCOC(=O)C1=C(COCCNc2nc(NC(=O)NC)n(C)n2)NC(C)=C(C(=O)OC)C1c1ccccc1Cl (stereo not shown) [Example 79, hydrate]	6.6
CCOC(=O)C1=C(COCCNc2n[s+]([O-])nc2OC)NC(C)=C(C(=O)OC)C1c1cccc(Cl)c1Cl (stereo not shown)	10
CCOC(=O)C1=C(COCCNc2nc(C)cs2)NC(C)=C(C(=O)OC)C1c1ccccc1Cl (stereo not shown)	39.8
CCOC(=O)C1=C(COCCNc2ccc(C(N)=O)cn2)NC(C)=C(C(=O)OC)C1c1ccccc1Cl (stereo not shown)	18.2
CCOC(=O)C1=C(COCCNc2cc(=O)n(C)c(=O)n2C)NC(C)=C(C(=O)OC)C1c1ccccc1Cl (stereo not shown)	50.1
CCOC(=O)C1=C(COCCNc2ccc(S(=O)(=O)N(C)C)cn2)NC(C)=C(C(=O)OC)C1c1cccc(Cl)c1Cl (stereo not shown)	1.25
CCOC(=O)C1=C(COCCNc2nccnc2Cl)NC(C)=C(C(=O)OC)C1c1cccc(Cl)c1Cl (stereo not shown)	2.51

----------
IC50 values, listed per item
# Test system: rat aorta
# run.description: inhibition of calcium-induced contraction (change in tension) of spirally cut strips of rat aorta in K+ 45 mM saline
# Type: cell-based
# condition.notes: 0.75 h, 45 millimolar potassium, 2 millimolar calcium, 45 minutes, read-out: IC50 (molar concentration required to reduce the response by 50%)
reported.metric: IC50

compound	target.desc	measured.value
CCOC(=O)C1=C(COCCNc2nc(C(=O)NC)cs2)NC(C)=C(C(=O)OC)C1c1ccccc1Cl (centres unmarked)	rat aorta	5.37 nM
CCOC(=O)C1=C(COCCNc2n[s+]([O-])nc2N)NC(C)=C(C(=O)OC)C1c1cccc(Cl)c1Cl (centres unmarked) [Example 67, hemihydrate]	rat aorta	19.9 nM
CCOC(=O)C1=C(COCCNc2n[s+]([O-])nc2OC)NC(C)=C(C(=O)OC)C1c1ccccc1Cl (centres unmarked)	rat aorta	25.1 nM
CCOC(=O)C1=C(COCCNc2ccnc(N)n2)NC(C)=C(C(=O)OC)C1c1ccccc1Cl (centres unmarked)	rat aorta	6.3 nM
CCOC(=O)C1=C(COCCNc2nc(C)cc(=O)[nH]2)NC(C)=C(C(=O)OC)C1c1ccccc1Cl (centres unmarked)	rat aorta	10 nM

----------
# System: rat aorta
# run.description: inhibition of calcium-induced contraction (change in tension) of spirally cut strips of rat aorta in K+ 45 mM saline
# Type: cell-based
# condition.notes: 0.75 h, 45 millimolar potassium, 2 millimolar calcium, 45 minutes, read-out: IC50 (molar concentration required to reduce the response by 50%)
IC50 values, listed per item

compound	value.unit	IC50
CCOC(=O)C1=C(COCCNc2cc(N3CCOCC3)ncn2)NC(C)=C(C(=O)OC)C1c1cccc(Cl)c1Cl (stereo not shown)	nM	1.34
CCOC(=O)C1=C(COCCNC2=NC(C)(C)C(=O)N2)NC(C)=C(C(=O)OC)C1c1ccccc1Cl (stereo not shown)	nM	100
CCOC(=O)C1=C(COCCNc2ncccc2C(N)=O)NC(C)=C(C(=O)OC)C1c1ccccc1Cl (stereo not shown)	nM	45.7
CCOC(=O)C1=C(COCCNc2cncc(Cl)n2)NC(C)=C(C(=O)OC)C1c1ccccc1Cl (stereo not shown)	nM	6.3
CCOC(=O)C1=C(COCCNc2n[s+]([O-])nc2N)NC(C)=C(C(=O)OC)C1c1ccccc1Cl (stereo not shown)	nM	13.1
CCOC(=O)C1=C(COCCNc2ncc(O)c(C)n2)NC(C)=C(C(=O)OC)C1c1cccc(Cl)c1Cl (stereo not shown) [Example 91A]	nM	1
CCOC(=O)C1=C(COCCNc2nccc(N)n2)NC(C)=C(C(=O)OC)C1c1ccccc1Cl (stereo not shown)	nM	3.98

All figures here come from patent US4572908A.
